Assay protocol: Selectivity index, ratio of IC50 for human HT29 cells to IC50 for Trypanosoma brucei rhodesiense STIB 900
Assay type: toxicity, cell-based, HT-29
Stated conditions: HT29 cells versus Trypanosoma brucei rhodesiense STIB 900, read-out: Ratio IC50
selectivity ratio values for the compounds below.

**Query** For CC(=O)/C=C/[C@]1(O)[C@H](C)C[C@H](O)CC1(C)C [EPIBOSCIALIN] , what is its reported selectivity ratio?
**Result** 9.4

**Query** For CC(=O)/C=C/[C@]1(O)[C@@H](C)C[C@@H](O)CC1(C)C , what is its reported selectivity ratio?
**Result** 0.3

**Query** For Nc1nc(N)nc(Nc2ccc([As]3SCC(CO)S3)cc2)n1 (stereo not given) , what is its reported selectivity ratio?
**Result** 9000

**Query** For CC(=O)/C=C/[C@@]1(O)[C@H](C)C[C@H](O)CC1(C)C , what is its reported selectivity ratio?
**Result** 23

**Query** For CC(=O)/C=C/[C@@]1(O)[C@@H](C)C[C@@H](O)CC1(C)C , what is its reported selectivity ratio?
**Result** 1

====

inhibition zone (IZ) values for the molecules below.
System: Staphylococcus epidermidis
Assay protocol: Antimicrobial activity against Staphylococcus epidermis ATCC 12228 after 24 hrs by agar diffusion assay
Type: functional

# Molecule, inhibition zone (IZ)
data = [
    ("CC(=O)/C=C/[C@]1(O)[C@H](C)C[C@H](O)CC1(C)C [EPIBOSCIALIN]", "8 mm"),
    ("CC(=O)/C=C/[C@]1(O)[C@@H](C)C[C@@H](O)CC1(C)C", "8 mm"),
    ("CC(=O)/C=C/[C@@]1(O)[C@@H](C)C[C@@H](O)CC1(C)C", "0 mm"),
]

Shift focus to the following entry.
**Query** For CC(=O)/C=C/[C@@]1(O)[C@H](C)C[C@H](O)CC1(C)C , what is its reported inhibition zone (IZ)?
**Result** 0 mm
